src = paper PMC8857485

Target: PSP94 (Homo sapiens)
Sequence (P08118 21-114): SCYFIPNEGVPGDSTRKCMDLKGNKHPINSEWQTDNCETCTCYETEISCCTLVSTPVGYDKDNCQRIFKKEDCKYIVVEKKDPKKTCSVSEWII
Assay: MST binding to PSP94
Conditions: calcium chloride titration
pKd: −log10 of the molar value.
measured-property: pKd

[[record]]
molecule = "[Ca+2] [calcium, calcium chloride]"
measured_property = "pKd"
recorded_measurement = 3.42


----------
target: CRISP2^L98G Y99P (Homo sapiens, UniProt P16562, L98G/Y99P); construct: made in house; host or cells: E. coli; experiment: MST binding to CRISP2 double mutant L98G Y99P; set-up: species or system mammalian; settings: +PSP94, read-out: Kd, sterol binding by CRISP2^L98G Y99P in presence of PSP94
Counter-ions that a name gives are not always drawn.
measured-property: Kd (nM)

[[record]]
compound = "CC(C)CCC[C@@H](C)[C@H]1CC[C@H]2[C@@H]3CC=C4C[C@@H](OS(=O)(=O)O)CC[C@]4(C)[C@H]3CC[C@]12C [cholesterol sulfate]"
measured_on = "CRISP2^L98G Y99P (Homo sapiens, UniProt P16562, L98G/Y99P)"
measured_property = "Kd"
recorded_measurement = 500


----------
target: CRISP2 N97P (Homo sapiens, UniProt P16562, N97P); test: MST binding to CRISP2 single mutant N97P; details: absence of PSP94, read-out: Kd, sterol binding by CRISP2 N97P
Where a name gives a salt, the structure may show the parent alone.
measured-property: Kd

[[record]]
molecule = "CC(C)CCC[C@@H](C)[C@H]1CC[C@H]2[C@@H]3CC=C4C[C@@H](OS(=O)(=O)O)CC[C@]4(C)[C@H]3CC[C@]12C [cholesterol sulfate]"
recorded_measurement = "3.1 µM"


----------
target: Pry1 (Saccharomyces cerevisiae, UniProt P47032); experiment: Microscale thermophoresis (MST) binding to Pry1; conditions: absence of PSP94, read-out: Kd, sterol binding by Pry1
Sequence (P47032 20-299): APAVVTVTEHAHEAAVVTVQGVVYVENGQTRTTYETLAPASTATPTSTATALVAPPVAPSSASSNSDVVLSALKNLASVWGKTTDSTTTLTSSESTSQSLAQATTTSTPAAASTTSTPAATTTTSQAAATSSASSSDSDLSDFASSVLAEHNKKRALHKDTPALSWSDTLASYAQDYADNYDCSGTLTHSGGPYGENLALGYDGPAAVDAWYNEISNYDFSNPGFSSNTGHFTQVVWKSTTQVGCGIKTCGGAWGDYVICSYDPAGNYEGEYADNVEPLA
pKd: −log10 of the molar value. Where a name gives a salt, the structure may show the parent alone.
measured-property: pKd

[[record]]
compound = "CC(C)CCC[C@@H](C)[C@H]1CC[C@H]2[C@@H]3CC=C4C[C@@H](OS(=O)(=O)O)CC[C@]4(C)[C@H]3CC[C@]12C [cholesterol sulfate]"
measured_property = "pKd"
recorded_measurement = 5.52


----------
Target: CRISP2 (Homo sapiens)
Construct: made in house; host or cells: E. coli BL21
Sequence (P16562 22-243): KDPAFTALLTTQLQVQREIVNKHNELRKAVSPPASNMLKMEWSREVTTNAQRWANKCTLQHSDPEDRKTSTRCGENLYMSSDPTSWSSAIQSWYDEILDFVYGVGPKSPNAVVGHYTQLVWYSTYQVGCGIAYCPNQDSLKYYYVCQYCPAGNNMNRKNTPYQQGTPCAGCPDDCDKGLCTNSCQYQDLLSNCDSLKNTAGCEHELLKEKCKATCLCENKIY
Assay: MST binding to CRISP2
Design: species or system mammalian
Settings: absence of PSP94, read-out: Kd, sterol binding by CRISP2
pKd: −log10 of the molar value. Where a name gives a salt, the structure may show the parent alone.
measured-property: pKd

[[record]]
molecule = "CC(C)CCC[C@@H](C)[C@H]1CC[C@H]2[C@@H]3CC=C4C[C@@H](OS(=O)(=O)O)CC[C@]4(C)[C@H]3CC[C@]12C [cholesterol sulfate]"
recorded_measurement = 5.80


----------
Biological target: CRISP2^N97P Y99P (Homo sapiens, UniProt P16562, N97P/Y99P)
Sequence (P16562 22-243 N97P/Y99P): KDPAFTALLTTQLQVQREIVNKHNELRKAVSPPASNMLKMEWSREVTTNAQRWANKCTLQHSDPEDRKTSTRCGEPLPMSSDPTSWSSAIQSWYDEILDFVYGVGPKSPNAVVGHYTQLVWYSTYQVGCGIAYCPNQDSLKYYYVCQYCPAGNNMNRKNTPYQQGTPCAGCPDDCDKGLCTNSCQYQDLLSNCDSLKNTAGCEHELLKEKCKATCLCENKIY
Test: MST binding to CRISP2 double mutant N97P Y99P
Details: absence of PSP94, read-out: Kd, sterol binding by CRISP2^N97P Y99P
Where a name gives a salt, the structure may show the parent alone.
measured-property: Kd (nM)

[[record]]
compound = "CC(C)CCC[C@@H](C)[C@H]1CC[C@H]2[C@@H]3CC=C4C[C@@H](OS(=O)(=O)O)CC[C@]4(C)[C@H]3CC[C@]12C [cholesterol sulfate]"
value_units = "nM"
recorded_measurement = 2700


----------
Biological target: CRISP2 L98G (Homo sapiens, UniProt P16562, L98G)
Sequence (P16562 22-243 L98G): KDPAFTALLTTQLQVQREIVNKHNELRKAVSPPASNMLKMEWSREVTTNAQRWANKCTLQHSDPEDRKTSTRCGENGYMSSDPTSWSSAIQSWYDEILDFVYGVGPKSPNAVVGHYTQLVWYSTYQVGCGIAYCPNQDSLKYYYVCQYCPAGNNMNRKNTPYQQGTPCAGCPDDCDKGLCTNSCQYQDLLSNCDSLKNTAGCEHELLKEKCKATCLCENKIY
Experiment: MST binding to CRISP2 single mutant L98G
Details: absence of PSP94, read-out: Kd, sterol binding by CRISP2 L98G
Where a name gives a salt, the structure may show the parent alone.
measured-property: Kd (µM)

[[record]]
compound = "CC(C)CCC[C@@H](C)[C@H]1CC[C@H]2[C@@H]3CC=C4C[C@@H](OS(=O)(=O)O)CC[C@]4(C)[C@H]3CC[C@]12C [cholesterol sulfate]"
measured_property = "Kd"
recorded_measurement = 95


----------
biological target: CAP domain of Pry1 (Pry1^CAP) (Saccharomyces cerevisiae, UniProt P47032); construct: made in house; host or cells: E. coli BL21; assay: MST binding to the CAP domain of Pry1; settings: absence of PSP94, read-out: Kd, sterol binding by Pry1^CAP
Sequence (P47032 167-281 limits assumed): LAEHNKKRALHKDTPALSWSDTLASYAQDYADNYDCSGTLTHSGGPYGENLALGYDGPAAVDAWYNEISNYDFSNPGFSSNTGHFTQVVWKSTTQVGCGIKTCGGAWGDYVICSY
pKd: −log10 of the molar value. Where a name gives a salt, the structure may show the parent alone.
measured-property: pKd

[[record]]
compound = "CC(C)CCC[C@@H](C)[C@H]1CC[C@H]2[C@@H]3CC=C4C[C@@H](OS(=O)(=O)O)CC[C@]4(C)[C@H]3CC[C@]12C [cholesterol sulfate]"
measured_property = "pKd"
recorded_measurement = 6.05


----------
biological target: CRISP2 (Homo sapiens, UniProt P16562); construct: made in house; host or cells: E. coli BL21; assay: MST binding to CRISP2; set-up: species or system mammalian; settings: calcium chloride titration, read-out: Kd, calcium binding by CRISP2
pKd: −log10 of the molar value.
measured-property: pKd

[[record]]
molecule = "[Ca+2] [calcium, calcium chloride]"
measured_on = "CRISP2 (Homo sapiens, UniProt P16562)"
measured_property = "pKd"
recorded_measurement = 7.28


----------
Molecular target: CRISP2^N97P L98G (Homo sapiens, UniProt P16562, L98G/N97P)
Construct: made in house; host or cells: E. coli
Test: MST binding to CRISP2 double mutant N97P L98G
Design: species or system mammalian
Conditions: absence of PSP94, read-out: Kd, sterol binding by CRISP2^N97P L98G
Procedure: Next, we generated all three double mutant combinations of CRISP2: N97P L98G, N97P Y99P, and L98G Y99P. These three double mutant versions of CRISP2 were again expressed as His-tagged proteins in E. coli and purified, and their capacity to bind sterols in the presence or absence of PSP94 was assessed by MST. […] When expressed in yeast cells, the CRISP2^L98G Y99P double mutant was stably expressed and secreted as monitored by Western blotting (Fig. 6C). […]
Where a name gives a salt, the structure may show the parent alone.
measured-property: Kd

[[record]]
compound = "CC(C)CCC[C@@H](C)[C@H]1CC[C@H]2[C@@H]3CC=C4C[C@@H](OS(=O)(=O)O)CC[C@]4(C)[C@H]3CC[C@]12C [cholesterol sulfate]"
recorded_measurement = "3.8 µM"

